Where do the numbers come from? From ChEMBL document CHEMBL3045835.

# Test system: Bacillus subtilis
# protocol_description: Antibacterial activity against Bacillus subtilis MTCC 441 at 1000 ug/ml after 18 hr by cup plate method
# Type: functional
# details: MTCC 441, 18 h, read-out: DIZ
quantity: zone of inhibition at 1000 µg/mL (mm)
Write the value in mm as a bare number.

Before answering, review these 3 worked examples.
smiles_text: Clc1ccc(/N=C/c2cccs2)cc1
result_value: 18
--
smiles_text: C(=N/c1nc[nH]n1)/c1cccc2ccccc12
result_value: 19
--
smiles_text: C(=N\c1nc[nH]n1)/c1cccs1
result_value: 16

// query zone of inhibition at 1000 µg/mL value for entry Cc1cccnc1/N=C/c1cccc2ccccc12
18

// query zone of inhibition at 1000 µg/mL value for entry O=c1c(/C=N/c2nc[nH]n2)coc2ccccc12
18

// query zone of inhibition at 1000 µg/mL value for entry Cc1cc(/N=C/c2cccc3ccccc23)no1
19

// query zone of inhibition at 1000 µg/mL value for entry O=c1c(/C=N/c2ccc(Cl)cc2)coc2ccccc12
19

// query zone of inhibition at 1000 µg/mL value for entry Clc1ccc(/N=C\c2cccc3ccccc23)cc1
15

// query zone of inhibition at 1000 µg/mL value for entry C(=N\c1nc[nH]n1)/c1ccco1
17

###

# System: Escherichia coli
# protocol_description: Antibacterial activity against Escherichia coli MTCC 1573 at 1500 ug/ml after 18 hr by cup-plate method
# Type: functional
# details: MTCC 1573, 18 h, read-out: DIZ
If the reported zone of inhibition at 1500 µg/mL equals or exceeds 20 mm, assign Satisfied. If not, assign Not satisfied.

Please review the following examples before continuing.
smiles_text: Cc1cccnc1/N=C/c1cccc2ccccc12
label_value: Not satisfied
--
smiles_text: C(=N/c1nc[nH]n1)/c1cccc2ccccc12
label_value: Satisfied
--
smiles_text: C(=N\c1nc[nH]n1)/c1ccco1
label_value: Satisfied
--
smiles_text: C(=N\c1nc[nH]n1)/c1cccs1
label_value: Satisfied
--
smiles_text: Clc1ccc(/N=C\c2cccc3ccccc23)cc1
label_value: Not satisfied

Decide: is the reported value of zone of inhibition at 1500 µg/mL for Cc1cc(/N=C/c2cccc3ccccc23)no1 equal to or greater than 20 mm?
Not satisfied

Decide: is the reported value of zone of inhibition at 1500 µg/mL for O=c1c(/C=N/c2nc[nH]n2)coc2ccccc12 equal to or greater than 20 mm?
Not satisfied

Decide: is the reported value of zone of inhibition at 1500 µg/mL for C(=N\c1ccccn1)/c1cccc2ccccc12 equal to or greater than 20 mm?
Not satisfied

###

# Test system: Bacillus pumilus
# protocol_description: Antibacterial activity against Bacillus pumilus MTCC 1456 after 24 hr by broth dilution method
# Type: functional
# details: MTCC 1456, 24 h
Rule: MIC below 300 µg/mL gives condition met, anything at or above gives condition not met.

Please review the following examples before continuing.
compound: Clc1ccc(/N=C\c2cccc3ccccc23)cc1
tested_system: Bacillus pumilus
label_value: condition not met
--
compound: Cc1cccnc1/N=C/c1cccc2ccccc12
tested_system: Bacillus pumilus
label_value: condition met

Lab log: compare recorded MIC with 300 µg/mL; is it strictly lower for O=c1c(/C=N/c2ccc(Cl)cc2)coc2ccccc12 ?
condition met

Lab log: compare recorded MIC with 300 µg/mL; is it strictly lower for C(=N\c1ccccn1)/c1cccc2ccccc12 ?
condition not met
